METHOD: CREB reporter modulators without forskolin, primary screen, cell-based, PC12, CRE-LacZ reporter, unstimulated (AID 1145)
CONDITIONS_USED: no forskolin, luminescence, 4.5 h, higher = more signal, called active from +8 up or from −8 down
// classify(record): look up z-score in ranges bottom = under 0.2, middle = from 0.2 up to 0.9, top = 0.9 and over

* O=C1C2=CC[C@H]3C(=O)N(Cc4ccccc4)C(=O)[C@H]3[C@H]2[C@H](O)[C@@H]2O[C@H]12 | middle
* CCCC[C@H]1CN2[C@@H](CC[C@@H](C)[C@@H]2c2ccc(Br)cc2)C(=O)O1 | middle
* CCOC(=O)CCN1C(=O)[C@H]2[C@H]3[C@H](O)[C@H](O)CC(=NOCC=C(C)CCC=C(C)C)[C@H]3CC[C@H]2C1=O | bottom
* CCOC(=O)[C@H](Cc1ccccc1)NC(=O)CCC1CC(OC(=O)NCc2ccc3c(c2)OCO3)CC2(CCCC(COC(=O)NCCCN3CCCC3=O)O2)O1 (stereo not given in full) | top
* CC(C)[C@@H](OCc1ccccc1)[C@H](C)C=NO[C@H](C)c1cn([C@@H]2COC[C@H]2O)nn1 | top

Input: Which class is correct for the following compound? `CCN1C(=O)[C@H]2[C@H]3[C@H](O)[C@H](O)CC(=NOCC[C@@H]4C=C[C@H](OC(C)=O)[C@@H](COC(C)=O)O4)[C@@H]3CC[C@H]2C1=O`
Output: bottom

* * *

Give measured composite z-score for each item. Keep answers brief.
METHOD: small-molecule microarray binders of probe aShh, primary screen, biochemical, biotinylated probe, 635/667 nm fluorescence (AID 1114);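 note: probe is biotin-labelled aShh protein from a stem cell growth factor screen; measures binding of labelled protein to compounds printed on the slide; score merges feature fluorescence at 667 nm with signal-to-noise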
CONDITIONS_USED: higher = more signal
Give bare numbers.

* O=C1CCCC=C1C(O)c1ccc([N+](=O)[O-])cc1 (centres undefined) | -0.288
* CO[C@@H](C(C)C)[C@@H](C)C1OC(=O)CC1O (some centres undefined) | -0.171
* CO[C@@H]1C=CCC(=O)N[C@@H](C)C(=O)OC[C@@H](OC)[C@H](C)C=CCC(=O)OC[C@H]1C | -0.0035
* CC(CCC(=O)OC[C@H]1O[C@H](C#Cc2ccccc2)C=C[C@@H]1Oc1ccc(C)cc1)=NO[C@@H](C)c1cc(-c2c(C)cc(C)cc2C)no1 | 0.0121
* O=C1CCCC=C1C(O)COCc1ccccc1 (centres undefined) | -0.269
* CC(CCN1CCCc2nc(C)c(C)cc21)=NO[C@@H](C)c1cn([C@H](CO)Cc2ccccc2)nn1 | 0.0952
* CCN1C(=O)[C@H]2[C@H]3[C@H](O)[C@H](O)CC(=NO[C@H](C)c4cn([C@H](CO)Cc5ccccc5)nn4)[C@@H]3CC[C@H]2C1=O | -0.358
* CCN1C(=O)[C@H]2[C@H]3[C@H](O)[C@H](O)CC(=NNC(=O)OCc4ccccc4)[C@@H]3CC[C@H]2C1=O | -0.0463

Input: GET /values?readout=composite z-score&item= `COC(=O)CC=C1c2ccccc2[C@H](OC)[C@H]1C`
Output: -0.138

* * *

METHOD: small-molecule microarray binders of probe aDKK1, primary screen, biochemical, biotinylated probe, 635/667 nm fluorescence (AID 1099);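 note: score merges 667nm spot fluorescence with signal to noise across triplicate slides; reference of the scale not given here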
CONDITIONS_USED: higher = more signal
Binary classification by composite z-score, with -0.1 as an inclusive lower bound for Yes; all other cases are No.

Record excerpt, results attached:
* CO[C@@H]1COC(=O)[C@H](CCSC)NC(=O)CC=C[C@@H](C)COC(=O)[C@@H]2CCCN2C(=O)CC=C[C@H]1C | No
* O=C1[C@H]2[C@H]3[C@H](O)[C@H](O)CC(=NOCc4ccccc4)[C@@H]3CC[C@H]2C(=O)N1c1cccc(Oc2ccccc2)c1 | No
* O=C(NCCC[N+]1=CC=NC1c1ccccc1)N1CCCc2nc(-c3ccc(Br)cc3)ccc21 (configuration not stated) | No
* CCOC(=O)NN=C1C[C@@H](O)[C@@H](O)[C@@H]2[C@@H]3C(=O)N(CC)C(=O)[C@@H]3CC[C@H]12 | No
* CC(C)[C@@H](OCc1ccccc1)[C@H](C)C=NOC[C@@H](O)[C@H]1O[C@@H]2OC(C)(C)O[C@@H]2[C@H]1O | Yes

Input: Please check the record `CC(CCN1CCCc2nc(C)c(C)cc21)=NO[C@H](C)c1cn([C@@H]2COC[C@H]2O)nn1` and state if its composite z-score is at or above -0.1.
Output: No

Input: API: above_or_equal(metric=composite z-score, cutoff=-0.1) for item `CC(=O)OC[C@H]1O[C@H](CC=NO[C@@H](C)c2cn([C@H](CO)Cc3ccccc3)nn2)C=C[C@@H]1OC(C)=O`
Output: Yes

* * *

Can you tell me z-score for the items I'm about to list?
METHOD: fission yeast growth modulation, primary screen, strain 972, OD600, 24 h, no modulator (AID 1090);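 note: basal condition with compound alone and no growth modifier present; test concentration not given here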
CONDITIONS_USED: S. pombe 972 growth, higher = more signal, called active from +8 up or from −8 down
Answers are plain numbers.

Worked cases, answers included:
• O=C1[C@H]2[C@H]3[C@H](O)[C@H](O)CC(=NOC[C@@H](O)COCc4ccco4)[C@@H]3CC[C@H]2C(=O)N1C1CCCCC1 = -0.0798
• O=C(NN=C1C[C@@H](O)[C@@H](O)[C@@H]2[C@@H]3C(=O)N(Cc4ccccc4)C(=O)[C@@H]3CC[C@H]12)OCc1ccccc1 = -0.815
• COc1ccc(O[C@H]2C=C[C@@H](c3ccccc3)O[C@@H]2CON=C2c3cc(OC)ccc3O[C@H](c3cccc(OC)c3)[C@H]2O)cc1 = 0.281

Now, please, on to the next molecule.
Input: Would you mind telling me what z-score value was observed for `COC(=O)CC=C[C@@H](C)[C@@H](C=NOC[C@@H](C)[C@H](OCc1ccccc1)C(C)C)NS(=O)(=O)c1ccc(C)cc1` ?
Output: 1.53

* * *

METHOD: E. coli acrAB mutant growth effects, primary screen, E. coli filamentation inducers, strain DRC39, OD650, 24 h (AID 1178);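 note: growth measured as culture turbidity by optical density at 650 nm; test concentration not given here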
CONDITIONS_USED: higher = more signal, called active from +8 up or from −8 down
PROPERTY_MEASURED: z-score
Give bare numbers.

- CC(C)=CCCC(C)=CCON=C1C[C@@H](O)[C@@H](O)[C@@H]2[C@@H]3C(=O)N([C@@H](C)c4ccccc4)C(=O)[C@@H]3CC[C@@H]12: -0.464
- CC(=O)OC[C@H]1O[C@H](CC=NOC[C@@H](O)COCc2ccco2)C=C[C@@H]1OC(C)=O: 0.574
- CC(C)CON=C1[C@H]2CCn3c(=O)n(C)c(=O)n3[C@H]2[C@H](O)[C@@H]2O[C@H]12: -0.0374

// batch mode: one z-score value per listed entry
1. O=C1C[C@@H](O)[C@@H](O)[C@@H]2[C@@H]3C(=O)N(c4ccc(F)cc4F)C(=O)[C@@H]3CC[C@H]12
2. COc1ccc(O[C@H]2C=C[C@@H](c3ccccc3)O[C@@H]2CON=C(C)CCN2CCCc3nc(C)c(C)cc32)cc1
3. COC(=O)[C@H](C)NC(=O)CCC1CC(OC(=O)NCCc2ccc(F)cc2)CC2(CCCC(COC(=O)NCc3ccccc3)O2)O1 (stereo partly specified)
4. COC(=O)[C@@H]1CC[C@H](C)[C@@H](c2ccc(Br)cc2)N1C(=O)C(F)(F)F
5. C[C@H]1CC[C@H]2C(=O)N[C@H](Cc3ccccc3)C(=O)N2[C@@H]1c1ccccc1
6. CC(=O)OC[C@H]1O[C@H](CC=NO[C@@H](C)c2cn([C@H](CO)Cc3ccccc3)nn2)C=C[C@@H]1OC(C)=O
7. CON=C(C)CCN1CCCc2nc(C)c(C)cc21

Output:
1: -0.297; 2: -0.321; 3: 0.0734; 4: -0.0765; 5: 0.718; 6: -0.645; 7: 0.213

Would you mind listing z-score for each of the following compounds?
1. CCc1cc2c(nc1CC)CCN(CCC(C)=NOC(C)CN1CCCCc3nc(C)c(C)cc31)C2 (stereo unspecified)
2. CC(C)(C)N1C(=O)[C@H]2[C@H]3[C@H](O)[C@H](O)CC(=NNC(=O)OCc4ccccc4)[C@@H]3CC[C@H]2C1=O
3. O=C1[C@H]2[C@H]3[C@H](O)[C@H](O)CC(=NO[C@@H]4O[C@H](CO)[C@@H](O)[C@H](O)[C@H]4O)[C@@H]3CC[C@H]2C(=O)N1C[C@@H]1CCCO1
4. COC(=O)[C@H](C)NC(=O)CCC1CC(OC(=O)NCCc2ccc(F)cc2)CC2(CCCC(COC(=O)NCCOc3ccccc3)O2)O1 (stereo partly specified)
5. O=C1[C@H]2[C@H]3[C@H](O)[C@H](O)CC(=NOC[C@@H](O)COCc4ccco4)[C@@H]3CC[C@H]2C(=O)N1c1cccc(Oc2ccccc2)c1
6. COC(=O)CC=C[C@@H](C)[C@@H](C=NOC[C@@H](C)[C@H](OCc1ccccc1)C(C)C)OC

Output:
1: -0.148; 2: 0.223; 3: 0.564; 4: 0.289; 5: -0.25; 6: -0.213
